Entry source: patent US8304547B2

- measurement target: human trkA receptor (Homo sapiens, UniProt P04629)
- Sequence (P04629 33-796): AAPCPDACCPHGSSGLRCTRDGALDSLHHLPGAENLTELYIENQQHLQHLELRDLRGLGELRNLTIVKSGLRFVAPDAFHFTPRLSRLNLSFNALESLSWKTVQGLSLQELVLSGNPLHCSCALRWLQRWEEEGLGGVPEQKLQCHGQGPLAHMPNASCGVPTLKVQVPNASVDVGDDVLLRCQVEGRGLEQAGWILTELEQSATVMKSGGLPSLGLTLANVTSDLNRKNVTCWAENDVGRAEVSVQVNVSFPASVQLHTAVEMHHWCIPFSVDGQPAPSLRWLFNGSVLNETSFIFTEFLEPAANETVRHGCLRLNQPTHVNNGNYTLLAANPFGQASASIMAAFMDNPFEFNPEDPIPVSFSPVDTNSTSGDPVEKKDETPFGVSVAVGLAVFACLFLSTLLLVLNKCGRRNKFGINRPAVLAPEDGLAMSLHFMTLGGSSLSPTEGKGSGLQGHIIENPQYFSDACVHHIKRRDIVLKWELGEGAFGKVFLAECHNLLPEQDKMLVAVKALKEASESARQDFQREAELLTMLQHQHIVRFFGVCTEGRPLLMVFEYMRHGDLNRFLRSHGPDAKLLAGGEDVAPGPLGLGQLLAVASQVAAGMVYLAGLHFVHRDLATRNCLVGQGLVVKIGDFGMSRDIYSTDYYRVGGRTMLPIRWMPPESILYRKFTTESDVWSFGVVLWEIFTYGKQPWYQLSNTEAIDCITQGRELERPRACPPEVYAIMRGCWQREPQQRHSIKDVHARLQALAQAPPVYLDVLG
- test details: trkA receptor inhibitory activity using a cell expressing a nerve growth factor receptor (NGF-dependent increase of calcium concentration in cells, FLIPR)
- test parameters: HEK293 cells stably expressing human trkA receptor; NGF-stimulated change in Ca concentration in cells
pIC50: −log10 of the molar value.
measured endpoint: pIC50

>>> quantitative_readout("CN(CC1CCOCC1)c1nc(C(=O)Nc2ccc(CN3CCOCC3)cc2C(=O)NC2CCOCC2)cs1")
8.17
>>> quantitative_readout("CO[C@H]1CCN(c2nc(C(=O)Nc3ccccc3C(=O)Nc3cccnc3)co2)C1")
8.17
>>> quantitative_readout("CCOC1CCN(c2nc(C(=O)Nc3ccccc3C(=O)NC3CCOCC3)cs2)CC1")
7.57
>>> quantitative_readout("CC(=O)c1cc(C2(C#N)CC2)ccc1NC(=O)c1csc(N2CCC(Oc3ncccn3)CC2)n1")
8.77
>>> quantitative_readout("COC[C@@H](C)NC(=O)c1cc(CN2CCOCC2)ccc1NC(=O)c1csc(N2CC(OC)C2)n1")
7.60
>>> quantitative_readout("COCCNC(=O)c1cc(CN2CCOCC2)ccc1NC(=O)c1csc(N2CC(OC)C2)n1")
7.44
>>> quantitative_readout("Nc1cc(-c2nc(C(=O)Nc3ccccc3C(=O)Nc3cccnc3)co2)ccn1")
8.38
>>> quantitative_readout("CCOCc1ccc(NC(=O)c2csc(N3CC[C@H](OC)C3)n2)c(C(=O)NCCOC)c1")
8.06

A = CN(CC1CCOCC1)c1nc(C(=O)Nc2ccccc2C(=O)Nc2cccnc2)cs1
B = O=C(Nc1ccccc1S(=O)(=O)C(F)F)c1csc(N2CCC(Oc3ncccn3)CC2)n1
Hi, I'm comparing two records. Which one has the lower pIC50, A or B ? Kindly state the label of the option you pick.
B
(B: 8.68, A: 9.24)
